System: 186277-243-T-J2-PDC complex spheroids, viability
Assay: Anticancer human tumor 186277-243-T-J2-PDC patient-derived colon adenocarcinoma cell line growth inhibition [RAS]
Details: second compound 0.00949 µM; first compound 10 µM; hits give low values
Assay Readout: viability, T/C (%)
Write it as a number; the unit % goes unstated.

[ask] Item CC(=O)OC12COC1CC(O)C1(C)C(=O)C(O)C3=C(C)C(OC(=O)C(O)C(NC(=O)OC(C)(C)C)c4ccccc4)CC(O)(C(OC(=O)c4ccccc4)C21)C3(C)C (centres undefined) + CCn1c(-c2cc(N3CCN(C)CC3)cnc2C(C)OC)c2c3cc(ccc31)-c1csc(n1)CC(NC(=O)C1CC1C)C(=O)N1CCCC(N1)C(=O)OCC(C)(C)C2 has what recorded viability, T/C?
[reply] 3.14

[ask] And what about the molecule NC1c2ccccc2OC12CCN(c1cnc3c(N4CCCc5ncccc54)n[nH]c3n1)CC2 (centres undefined) + CCn1c(-c2cc(N3CCN(C)CC3)cnc2C(C)OC)c2c3cc(ccc31)-c1csc(n1)CC(NC(=O)C1CC1C)C(=O)N1CCCC(N1)C(=O)OCC(C)(C)C2 ?
[reply] 1.61

[ask] Ok, now CC1(O)CCCC1n1c(=O)c(C(F)F)cc2cnc(NC3CCN(S(C)(=O)=O)CC3)nc21 (centres undefined) + CCn1c(-c2cccnc2C(C)OC)c2c3cc(ccc31)N1CCOC(CC(NC(=O)C(C(C)C)N(C)C(=O)C3(F)CCN(C(=O)C#CC(C)(C)N(C)C)CC3)C(=O)N3CCCC(N3)C(=O)OCC(C)(C)C2)C1
[reply] 2.28

[ask] Similarly, CCC(CC)c1cc(NC2CCC(N)C2)n2nccc2n1 (centres undefined) + CCn1c(-c2cc(N3CCN(C)CC3)cnc2C(C)OC)c2c3cc(ccc31)-c1csc(n1)CC(NC(=O)C1CC1C)C(=O)N1CCCC(N1)C(=O)OCC(C)(C)C2 ?
[reply] 0.17

---

Tested on: 186277-243-T-J2-PDC complex spheroids, viability
Assay: Anticancer human tumor 186277-243-T-J2-PDC cell line growth inhibition [RAS];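 also: spheroids exposed to compounds for 7 days before viability read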
Conditions: second compound 0.000949 µM; first compound 10 µM; hits give low values
Assay Readout: viability, T/C (%)
The figure you give is taken to be in %; do not add the unit.

[ask] Quick one: viability, T/C of CC1(O)CCCC1n1c(=O)c(C(F)F)cc2cnc(NC3CCN(S(C)(=O)=O)CC3)nc21 (configuration not stated) + CCn1c(-c2cccnc2C(C)OC)c2c3cc(ccc31)N1CCOC(CC(NC(=O)C(C(C)C)N(C)C(=O)C3(F)CCN(C(=O)C#CC(C)(C)N(C)C)CC3)C(=O)N3CCCC(N3)C(=O)OCC(C)(C)C2)C1 ?
[reply] 1.88

[ask] For CC(=O)OC12COC1CC(O)C1(C)C(=O)C(O)C3=C(C)C(OC(=O)C(O)C(NC(=O)OC(C)(C)C)c4ccccc4)CC(O)(C(OC(=O)c4ccccc4)C21)C3(C)C (configuration not stated) + CCn1c(-c2cc(N3CCN(C)CC3)cnc2C(C)OC)c2c3cc(ccc31)-c1csc(n1)CC(NC(=O)C1CC1C)C(=O)N1CCCC(N1)C(=O)OCC(C)(C)C2 then?
[reply] 2.87

[ask] Can you handle C[C@@H](NC(=O)c1ncnc(N)c1Cl)c1ncc(C(=O)Nc2cc(C(F)(F)F)c(Cl)cn2)s1 + CCn1c(-c2cccnc2C(C)OC)c2c3cc(ccc31)N1CCOC(CC(NC(=O)C(C(C)C)N(C)C(=O)C3(F)CCN(C(=O)C#CC(C)(C)N(C)C)CC3)C(=O)N3CCCC(N3)C(=O)OCC(C)(C)C2)C1 next?
[reply] 80.5

[ask] Would you kindly repeat that for CC(=O)OC12COC1CC(O)C1(C)C(=O)C(O)C3=C(C)C(OC(=O)C(O)C(NC(=O)OC(C)(C)C)c4ccccc4)CC(O)(C(OC(=O)c4ccccc4)C21)C3(C)C (configuration not stated) + CCn1c(-c2cccnc2C(C)OC)c2c3cc(ccc31)N1CCOC(CC(NC(=O)C(C(C)C)N(C)C(=O)C3(F)CCN(C(=O)C#CC(C)(C)N(C)C)CC3)C(=O)N3CCCC(N3)C(=O)OCC(C)(C)C2)C1 ?
[reply] 4.13

[ask] Further, for Cc1nc(N2CCC3(CC2)COC(C)C3N)c(CO)nc1Sc1ccnc(N)c1Cl (configuration not stated) + CCn1c(-c2cccnc2C(C)OC)c2c3cc(ccc31)N1CCOC(CC(NC(=O)C(C(C)C)N(C)C(=O)C3(F)CCN(C(=O)C#CC(C)(C)N(C)C)CC3)C(=O)N3CCCC(N3)C(=O)OCC(C)(C)C2)C1 ?
[reply] 131

[ask] Try this compound next: NC1c2ccccc2OC12CCN(c1cnc3c(N4CCCc5ncccc54)n[nH]c3n1)CC2 (configuration not stated) + CCn1c(-c2cc(N3CCN(C)CC3)cnc2C(C)OC)c2c3cc(ccc31)-c1csc(n1)CC(NC(=O)C1CC1C)C(=O)N1CCCC(N1)C(=O)OCC(C)(C)C2
[reply] 2.5

[ask] Item: CCC(CC)c1cc(NC2CCC(N)C2)n2nccc2n1 (configuration not stated) + CCn1c(-c2cc(N3CCN(C)CC3)cnc2C(C)OC)c2c3cc(ccc31)-c1csc(n1)CC(NC(=O)C1CC1C)C(=O)N1CCCC(N1)C(=O)OCC(C)(C)C2
[reply] 0.22

The values you see were collected from PubChem BioAssay AID2060908.
